Source listed as patent US20150166606A1.

Human Kallikrein IC50: recorded values
TARGET DESC: Activated human plasma kallikrein (Enzyme Research Laboratories, HPKa 1303) (human, UniProt P03952 20-638)
Sequence (P03952 20-638 limits assumed): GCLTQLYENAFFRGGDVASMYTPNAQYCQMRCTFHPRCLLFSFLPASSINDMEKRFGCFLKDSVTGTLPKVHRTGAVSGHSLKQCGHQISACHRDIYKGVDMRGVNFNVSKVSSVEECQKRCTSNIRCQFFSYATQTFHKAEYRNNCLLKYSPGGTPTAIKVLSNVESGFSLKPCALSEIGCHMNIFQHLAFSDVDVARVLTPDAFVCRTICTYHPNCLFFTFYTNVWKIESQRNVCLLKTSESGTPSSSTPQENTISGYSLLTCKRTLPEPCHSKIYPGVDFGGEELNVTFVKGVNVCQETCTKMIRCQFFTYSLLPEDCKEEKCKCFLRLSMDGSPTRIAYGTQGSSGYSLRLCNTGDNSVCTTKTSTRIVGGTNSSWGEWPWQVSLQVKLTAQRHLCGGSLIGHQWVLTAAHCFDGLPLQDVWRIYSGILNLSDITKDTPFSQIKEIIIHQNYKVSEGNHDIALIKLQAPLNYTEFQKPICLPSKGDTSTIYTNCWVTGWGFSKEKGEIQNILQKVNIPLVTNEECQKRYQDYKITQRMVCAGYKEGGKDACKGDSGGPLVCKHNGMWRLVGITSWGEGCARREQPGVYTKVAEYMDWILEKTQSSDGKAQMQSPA
ASSAY METHOD TEXT: cell-based or functional assay
Bridge positions count the residues as written; N and C are the ends. Square brackets hold non-standard residues; d marks the D form. Ends that are not written are not given here. * marks the point of attachment. mXylyl = xylyl linker from dibromoxylene joining the two cysteines; Phg = N[C@H](C(=O)O)c1ccccc1; Tle = CC(C)(C)[C@H](N)C(=O)O; Heptanoyl = CCCCCCC(=O)*; Nva = CCC[C@H](N)C(=O)O
Express it in nM; write the number only.

Use these answered entries as a reference point.
[Nva]CEP[Phg]CR[Tle]-NH2 (linker 2-6 via mXylyl) [R2030]	25
MCESICR[Tle]-NH2 (linker 2-6 via mXylyl) [R2010]	9.9

Now for a further binder.
Data request: Requested read-out: Human Kallikrein IC50. Entry: Heptanoyl-CESICRV-NH2 (linker 1-5 via mXylyl) [R2041]
Data returned: 24.2
